Data provenance: ChEMBL document CHEMBL4513216

Give measured cytotoxicity at 10 µM for each item. Keep answers brief.
Experiment: Toxicity liver stage against HepG2, at 10uM
Type: cell-based
Set-up: test concentration 10 uM, cell line HepG2-A16-CD81EGFP
Settings: human, HepG2-A16-CD81EGFP cells; read-out: INHIBITION
Numbers only, in %.

Recorded results for 3 compounds are shown here.
CC(C)NC(=O)C1CN(C(=O)NCc2ccccc2)CC12CCOCC2 (stereo unspecified)
-84.6
N#CCCNC(=O)CSc1cc(F)ccc1F
-3.74
O=C(NCc1cn2c(n1)CN(CC1CCOCC1)CC2)C1CCC1
-12.1

Batch of 2 compounds: report cytotoxicity at 10 µM for each.
1. Cc1cc(N2CCCC(c3nccnc3N(C)C)C2)ncn1 (stereo unspecified)
2. Cc1cnc(CN2CCC(N(C)Cc3nnc(C4CC4)n3C)C2)cn1 (stereo unspecified)

Response:
1: -1.77; 2: -2.31

Prompt: Let me know recorded cytotoxicity at 10 µM for O=C(Nc1nnc(C(F)F)s1)N[C@H](CCO)c1ccccc1 , thanks.
Response: 1.88

###

Test: Toxicity liver stage against HepG2, at 10uM
Format: cell-based
Design: test concentration 10 uM, cell line HepG2-A16-CD81EGFP
Conditions: human, HepG2-A16-CD81EGFP cells; read-out: INHIBITION
Parameter: cytotoxicity at 10 µM (%)
Answers are plain numbers, in %.

For each listed entry, give its cytotoxicity at 10 µM.
1. O=c1ccc2c([nH]1)CCN(S(=O)(=O)c1ccc3c(c1)CCCC3)C2
2. O=C(Nc1cccnc1)c1ccc(-n2cncn2)nn1
3. OCC1COCCN(Cc2cc(C3CCCCC3)no2)C1 (centres undefined)
4. CNS(=O)(=O)CC(=O)NC(C)Cc1ccc(-c2ccccc2)cc1 (centres undefined)
5. O=C1CC(C(=O)Nc2nnc(-c3ccoc3)[nH]2)c2ccccc2N1 (centres undefined)
6. CCC[C@@H](NC(N)=O)C(=O)N1Cc2ccccc2-c2ccccc2C1

Response:
1. -4.63
2. 4.48
3. 6.44
4. 7.69
5. 0.841
6. 5.17

For every listed record, write down its cytotoxicity at 10 µM.
1. Cc1cc(C)n(C2CN(CC(O)Cn3cccn3)C2)n1 (centres undefined)
2. CN1CCC(CNC(=O)NCc2ccc(F)cc2)CC1
3. CC(C)CN1CC[C@@H]2[C@H](CC1)N(S(C)(=O)=O)CCS2(=O)=O

Response:
1. -5.09
2. -10.1
3. 2.05

// input: 2 compounds below; output: cytotoxicity at 10 µM for each
1. CSCCc1n[nH]c2c1CN(S(=O)(=O)c1c(C)nn(C)c1C)CC2
2. O=C(CN1CCC(c2cccc(F)c2)C1)NCc1ccco1 (centres undefined)

Response:
7.66
-7.88

Could you report cytotoxicity at 10 µM for every entry in the following list?
1. CN(Cc1cccs1)Cc1nnsc1Cl
2. Cc1ccc(-c2ccnc(N[C@H]3COC[C@@H]3N3CCCC3)n2)c(C)n1
3. Cc1nc(C)n(CC2CCCN(Cc3cccc(F)c3F)C2)n1 (centres undefined)
4. Cc1noc2ncc(C(=O)N3CCCC(n4ccnc4C)C3)cc12 (centres undefined)
5. CC1c2ncc(CN3CCN(C)CC3)n2CCN1Cc1ccsc1 (centres undefined)
6. Cc1nc(CN2CCN(C(=O)c3c(C)noc3C)CC2)cs1
7. Cc1cc(CN2CCN(CC(O)c3cccc(F)c3)CC2)no1 (centres undefined)

Response:
-5.65
-1.45
-10.3
-13.4
6.58
-23.2
-12.2

// for each compound in input: emit cytotoxicity at 10 µM
1. CC(C)Cc1ncc2c(n1)CN(c1cc(NC3CC3)nc(N)n1)C2
2. Cc1ccc(C(=O)N(C)Cc2cc(Br)cs2)cn1
3. Cc1nc(C)n(CC2CCCN(Cc3cccc(C#N)c3)C2)n1 (centres undefined)
4. CC(=O)N1CCN(C(=O)NCCc2ccc(Cl)s2)CC1
5. COc1ccccc1CCNC(=O)N1CCCC(c2nncn2C)C1 (centres undefined)

Response:
1. -5.82
2. 9.06
3. -16
4. -11.6
5. -25.4

Prompt: Given Cc1cc(C)n(C2CCCN(C(=O)c3ccc(N(C)C)nn3)C2)n1 (centres undefined) , respond with its cytotoxicity at 10 µM.
Response: -9.31

###

Assay: Toxicity liver stage against HepG2, at 10uM
Format: cell-based
Set-up: test concentration 10 uM, cell line HepG2-A16-CD81EGFP
Details: human, HepG2-A16-CD81EGFP cells; read-out: INHIBITION
Parameter: cytotoxicity at 10 µM (%)
One number for each entry, in %.

Provide the reported cytotoxicity at 10 µM of each entry below, same order.
1. CC(C)OCCSCc1nnc(-c2cccc(F)c2)o1
2. COC(=O)c1cccc(C(=O)N2CCN(c3ccc(OC)cc3)CC2)n1
3. COc1cccc(CNC(=O)c2cccnc2SC(C)C)c1
4. O=C(c1ccc(-n2cccn2)nc1)N1CCC(c2ccc(O)cc2)CC1
5. Cc1nc(Nc2nnc(C)s2)cc(C2CCCN2c2ccncc2)n1 (stereo unspecified)

Response:
1. 9.45
2. -7.12
3. -1.35
4. 11.7
5. -9.99

Prompt: Report cytotoxicity at 10 µM for COCCNc1nc(C2CCCC2)nc2c1CCNCC2
Response: -6.4

###

Test: Toxicity liver stage against HepG2, at 10uM
Assay type: cell-based
Parameters: test concentration 10 uM, cell line HepG2-A16-CD81EGFP
Settings: human, HepG2-A16-CD81EGFP cells; read-out: INHIBITION
Parameter: cytotoxicity at 10 µM (%)
Numbers only, in %.

Example molecules with recorded cytotoxicity at 10 µM:
Cc1cccc(-c2nnn3c2COC(CNC(=O)N2CCCC2)C3)c1 (stereo unspecified)
-94.5
CN(Cc1ccco1)[C@@H]1CN(CC2CCOCC2)[C@@H]2CCCO[C@H]12
-76.4

For every item in the list below, what is its measured cytotoxicity at 10 µM?
1. Cc1ccc(NC(=O)CC2NC(N3CCc4ccccc43)=NC2=O)cc1 (stereo unspecified)
2. c1ccc(CN2CCCC(Cn3cncn3)C2)nc1 (stereo unspecified)
3. COCCN1CCC(CN(Cc2ccncc2)C2CCCCC2)CC1
4. O=C(c1cc(C2CCCCN2CCO)n[nH]1)N1CCOCC1 (stereo unspecified)
5. CC(C)(C)n1ncc(NCCc2ccccc2C(F)(F)F)c(Cl)c1=O

Response:
[0.417, -9.93, -2.91, -24.5, 57]

###

Assay: Toxicity liver stage against HepG2, at 10uM
Type: cell-based
Parameters: test concentration 10 uM, cell line HepG2-A16-CD81EGFP
Settings: human, HepG2-A16-CD81EGFP cells; read-out: INHIBITION
Parameter: cytotoxicity at 10 µM (%)
One number for each entry, in %.

Cc1ccc(C(=O)Nc2cnn(CC(=O)NC3CCCC3)c2)c(=O)[nH]1
-4.09
CCN(CCn1cccn1)Cc1nc(-c2cccs2)oc1C
-0.179
CN(CC(=O)Nc1ccc(Br)cn1)C(=O)Cc1ccc(O)cc1
-0.0241
COc1ccccc1C1(CNCc2cccc(C#N)c2)CCOCC1
6.37

# return cytotoxicity at 10 µM for each item in the list
1. Cc1cncc(NC(=O)c2ccc(CN3CCC(CO)CC3)cc2)c1
2. CS(=O)(=O)NCCN1CCCC1c1ccc(Cl)cc1 (centres undefined)

Response:
[19, 3.6]

###

Test: Toxicity liver stage against HepG2, at 10uM
Assay type: cell-based
Parameters: test concentration 10 uM, cell line HepG2-A16-CD81EGFP
Conditions: human, HepG2-A16-CD81EGFP cells; read-out: INHIBITION
Would you kindly list cytotoxicity at 10 µM for each of these compounds?
One number for each entry, in %.

Look over these answered cases.
CCn1ccnc1CN(C)Cc1nc(Cc2cccc(F)c2)no1
-4.44
c1cncc(CN2CCN3C[C@H](Oc4cncnc4)C[C@H]3C2)c1
-100

Consider the following items and state reported cytotoxicity at 10 µM for each.
1. Cc1nc(CN2CCCCC2CCc2cccs2)co1 (centres undefined)
2. CCc1ccc(C(=O)N2CCC(c3nncn3CC)CC2)s1
3. CCCNC(=O)c1cc2c(s1)CCN2c1ncccn1
4. COc1nc2c(cc1C(=O)N(C)Cc1noc3c1CCCC3)CCC2
5. CCCN1CCC[C@]2(CCC(=O)N2Cc2ccncc2)[C@H]1CC
6. CCn1cnnc1CNC(=O)N1CCN(c2ccc(OC)cc2)CC1

Response:
1: -2.36; 2: -15.4; 3: -105; 4: 0.224; 5: -1.16; 6: -1.62

For each of the items listed, what is its cytotoxicity at 10 µM?
1. Cc1cc(CC2COCCN(CCc3ccccc3)C2)ncn1 (centres undefined)
2. CCOc1ncccc1CNc1cc(COC)ncn1
3. Cc1ccc(C(=O)NCC(O)c2cnn(C)c2)c(Br)c1 (centres undefined)
4. Cc1[nH]c2c(C)ccc(C)c2c1CC(=O)NCc1csc(N(C)C)n1
5. Cn1cc(C2CN(C(=O)Cc3coc(-c4ccccc4)n3)CCO2)cn1 (centres undefined)
6. COc1ccc(CC2CCCN2CCCC#N)cc1 (centres undefined)
7. CNc1nc(N2CCN(C3CCCCC3)C(CCO)C2)nc2c1CCC2 (centres undefined)

Response:
1: 2.04; 2: 6.41; 3: -6.53; 4: -6.65; 5: -12.4; 6: -54.7; 7: -6.86

Hello, I would appreciate it if you could give cytotoxicity at 10 µM for each entry below.
1. Cc1nc(NCCSc2ccccn2)c2c(C)noc2n1
2. CCCN1CCN(C(=O)c2ccc3ccccc3n2)[C@H]2CS(=O)(=O)C[C@H]21
3. COCC(=O)N1CC[C@H]2[C@H]1CCN2CC(C)C
4. CC(C)C(=O)N1CCC2(COCc3cnc(-c4cccnc4)nc32)C1 (centres undefined)
5. CN(C)CCN1CCOCC2(CCCN(C(=O)c3ccccc3)C2)C1 (centres undefined)

Response:
18.8
-3.31
1.18
-102
5.31

Hi team, please reply with cytotoxicity at 10 µM for each item in this list.
1. Oc1cccc(CN2C[C@@H]3CC[C@H]2CN(Cc2ccncc2)C3)c1
2. Cc1ccc2c(c1)CN(C(=O)c1ccccc1F)C(CN(C)C)CO2 (centres undefined)
3. CN(C)S(=O)(=O)NCC1OCCc2cn(CC3CCOCC3)nc21 (centres undefined)

Response:
[-131, 4.66, 7.4]

Prompt: Give the measured cytotoxicity at 10 µM for CC(C)(C)C(=O)N1CCC(c2nc(O)cc(-c3ccncc3)n2)CC1
Response: -22
